biological target: HDAC6 enzyme (Homo sapiens); construct: transducing full length HDAC6 gene into Sf-9 insect cells; GST; purchased SignalChem; host or cells: Sf-9 insect cells; assay: HDAC6 enzyme inhibitory activity (HDAC-Glo I/II Assay kit); type: biochemical; details: 10 μM; wells without enzyme = 100% inhibition; read-out: HDAC6 inhibitory rate (%) (10 μM)
Sequence (Q9UBN7 whole entry): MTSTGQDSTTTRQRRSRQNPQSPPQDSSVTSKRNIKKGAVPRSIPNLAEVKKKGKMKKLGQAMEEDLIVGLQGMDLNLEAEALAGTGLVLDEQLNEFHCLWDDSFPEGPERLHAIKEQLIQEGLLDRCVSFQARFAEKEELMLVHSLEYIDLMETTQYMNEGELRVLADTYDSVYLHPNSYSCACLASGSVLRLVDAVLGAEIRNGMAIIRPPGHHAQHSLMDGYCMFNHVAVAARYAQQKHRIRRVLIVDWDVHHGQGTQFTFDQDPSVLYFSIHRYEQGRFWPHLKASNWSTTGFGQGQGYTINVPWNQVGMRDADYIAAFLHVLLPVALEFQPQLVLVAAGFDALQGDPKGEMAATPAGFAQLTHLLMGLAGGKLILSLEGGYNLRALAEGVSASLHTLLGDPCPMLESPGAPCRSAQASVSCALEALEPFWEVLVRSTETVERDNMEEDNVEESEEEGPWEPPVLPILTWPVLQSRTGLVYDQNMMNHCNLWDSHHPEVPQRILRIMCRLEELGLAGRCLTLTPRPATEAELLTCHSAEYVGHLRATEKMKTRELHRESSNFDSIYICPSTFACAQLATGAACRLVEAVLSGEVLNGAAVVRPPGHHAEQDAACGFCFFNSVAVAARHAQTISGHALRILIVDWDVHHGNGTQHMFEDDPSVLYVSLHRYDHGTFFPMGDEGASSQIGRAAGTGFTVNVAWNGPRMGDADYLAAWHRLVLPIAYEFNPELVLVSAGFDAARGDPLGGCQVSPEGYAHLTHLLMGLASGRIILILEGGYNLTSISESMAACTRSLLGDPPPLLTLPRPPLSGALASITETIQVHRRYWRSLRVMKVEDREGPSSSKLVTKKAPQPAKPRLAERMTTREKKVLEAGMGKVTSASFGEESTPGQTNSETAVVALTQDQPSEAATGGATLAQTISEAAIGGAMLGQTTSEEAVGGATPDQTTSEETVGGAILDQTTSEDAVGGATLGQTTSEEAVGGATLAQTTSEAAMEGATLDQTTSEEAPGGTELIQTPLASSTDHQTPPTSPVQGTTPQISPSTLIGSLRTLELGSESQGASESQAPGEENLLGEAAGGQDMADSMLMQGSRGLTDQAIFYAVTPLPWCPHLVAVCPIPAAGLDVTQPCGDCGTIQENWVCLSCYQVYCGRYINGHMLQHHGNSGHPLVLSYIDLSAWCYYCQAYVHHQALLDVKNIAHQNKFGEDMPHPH
Listed here are molecules together with their documented inhibition at 10 µM.
quantity: inhibition at 10 µM (%)

[[record]]
molecule = "COC(C)(C)C(=O)N[C@@H]1CCCC[C@H]1N1Cc2ccc(-c3nnc(C(F)F)o3)cc2C1=O [Example 85]"
quantity = "inhibition at 10 µM"
value_reported = 101

[[record]]
molecule = "O=C(N[C@@H]1CCCC[C@H]1N1Cc2ccc(-c3nnc(C(F)F)o3)cc2C1=O)C1CC1C(F)F (stereo partly shown) [Example 71]"
quantity = "inhibition at 10 µM"
value_reported = 97

[[record]]
molecule = "O=C1c2cc(-c3nnc(C(F)F)o3)cnc2CN1[C@@H]1COCC[C@H]1Oc1ccc(F)c(F)c1 [Example 646]"
quantity = "inhibition at 10 µM"
value_reported = 99

[[record]]
molecule = "O=C1c2cc(-c3nnc(C(F)F)o3)ccc2CN1[C@@H]1CCOC[C@@H]1NC(=O)C(F)(F)C(F)(F)F [Example 418]"
quantity = "inhibition at 10 µM"
value_reported = 99


====

biological target: HDAC6 enzyme (Homo sapiens); construct: transducing full length HDAC6 gene into Sf-9 insect cells; GST; purchased SignalChem; host or cells: Sf-9 insect cells; test: HDAC6 enzyme inhibitory activity (HDAC-Glo I/II Assay kit); type: biochemical; settings: 10 μM; wells without enzyme = 100% inhibition; read-out: HDAC6 inhibitory rate (%) (10 μM)
Listed here are molecules together with their documented inhibition at 10 µM.
quantity: inhibition at 10 µM (%)

[[record]]
given_smiles = "CC(C)(C)OC(=O)N1CC(F)(F)C[C@@H]1CN1Cc2c(F)cc(-c3nnc(C(F)F)o3)cc2C1=O"
value_reported = 99

[[record]]
given_smiles = "O=C1c2cc(-c3nnc(C(F)F)o3)ccc2CN1CC1CC1"
value_reported = 92

[[record]]
given_smiles = "O=C1c2cc(-c3nnc(C(F)F)o3)cnc2CN1[C@@H]1CCCC(F)(F)[C@H]1NC(=O)C(F)(F)C(F)F"
value_reported = 99

[[record]]
given_smiles = "O=C(CC1CC1)N[C@@H]1CCCC[C@H]1N1Cc2ccc(-c3nnc(C(F)F)o3)cc2C1=O"
value_reported = 99

[[record]]
given_smiles = "O=C1c2cc(-c3nnc(C(F)F)o3)ccc2CN1[C@@H]1CCCC[C@H]1N1CCC2(CC2)C1=O"
value_reported = 98

[[record]]
given_smiles = "N#Cc1cccc(-c2ccc(Cl)cc2N2Cc3ccc(-c4nnc(C(F)F)o4)cc3C2=O)c1"
value_reported = 100

[[record]]
given_smiles = "O=C1c2cc(-c3nnc(C(F)F)o3)ccc2CN1c1ccccc1-n1cccn1"
value_reported = 99

[[record]]
given_smiles = "O=C1c2cc(-c3nnc(C(F)F)o3)ccc2CN1C[C@H]1COCCN1S(=O)(=O)C1CC1"
value_reported = 100

[[record]]
given_smiles = "O=C(N[C@@H]1CCCC[C@H]1N1Cc2c(F)cc(-c3nnc(C(F)F)o3)cc2C1=O)C(F)F"
value_reported = 99

[[record]]
given_smiles = "O=C1c2cc(-c3nnc(C(F)F)o3)cnc2CN1Cc1ccncc1"
value_reported = 94

[[record]]
given_smiles = "O=C1c2cc(-c3nnc(C(F)F)o3)cnc2CN1[C@@H]1COCC[C@H]1Oc1cc(F)cc(F)c1"
value_reported = 99

[[record]]
given_smiles = "COC1(C(=O)N[C@@H]2CCCC[C@H]2N2Cc3ccc(-c4nnc(C(F)F)o4)cc3C2=O)CC1"
value_reported = 101

[[record]]
given_smiles = "CC(C)(O)CC(=O)N[C@@H]1CCCC[C@H]1N1Cc2ccc(-c3nnc(C(F)F)o3)cc2C1=O"
value_reported = 102

[[record]]
given_smiles = "N#Cc1cccc(-c2cc(F)ccc2N2Cc3c(F)cc(-c4nnc(C(F)F)o4)cc3C2=O)c1"
value_reported = 99

[[record]]
given_smiles = "COC(=O)N1CCC[C@@H](N2Cc3ccc(-c4nnc(C(F)F)o4)cc3C2=O)[C@H]1c1ccc(F)cc1"
value_reported = 100

[[record]]
given_smiles = "O=C1c2cc(-c3nnc(C(F)F)o3)cnc2CN1c1ccccc1-c1cnn(C(F)F)c1"
value_reported = 101

